The reported numbers originate from patent US20160264674A1.

I'd be grateful if you could share measured % residual binding after heat treatment (room temperature = 100%) for these entries.
- study-target: T1, FLAG-tagged human APRIL (human, UniProt O75888 105-250, limits assumed)
- T1 construct: also called FLAG-tagged APRIL; FLAG-APRIL; not shown: FLAG tag
- T1 sequence (looked up): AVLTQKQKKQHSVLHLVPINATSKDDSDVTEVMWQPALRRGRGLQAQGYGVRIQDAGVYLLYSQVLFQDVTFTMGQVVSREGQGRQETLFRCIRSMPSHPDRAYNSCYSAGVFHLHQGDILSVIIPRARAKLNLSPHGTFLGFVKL
- assay-summary: FLAG-APRIL ELISA after 10 min at 70 °C, antibody at 1 µg/ml
Answers are plain numbers, in %.

Worked cases, answers included:
VH14_1C.VL15 (antibody, human IgG4, V domains shown, VH14_1 with M70I; Rest is human IgG4 (S241P, Kabat) and human kappa; also called 14_1C.15) VH: QVQLVQSGAEVKKPGASVKVSCKASGYTFTSYVMHWVRQAPGQGLEWMGYINPYNDAPKYNEKFKGRVTITSDTSASTAYMELSSLRSDDTAVYYCARGLGYALYYAMDYWGQGTTVTVSS VL: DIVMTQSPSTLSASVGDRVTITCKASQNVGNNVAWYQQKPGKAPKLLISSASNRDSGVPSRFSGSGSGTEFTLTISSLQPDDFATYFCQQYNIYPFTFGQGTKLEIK: 43.8
VH14_1D.VL15 (antibody, human IgG4, V domains shown, VH14_1 with T74K; Rest is human IgG4 (S241P, Kabat) and human kappa; also called 14_1D.15) VH: QVQLVQSGAEVKKPGASVKVSCKASGYTFTSYVMHWVRQAPGQGLEWMGYINPYNDAPKYNEKFKGRVTMTSDKSASTAYMELSSLRSDDTAVYYCARGLGYALYYAMDYWGQGTTVTVSS VL: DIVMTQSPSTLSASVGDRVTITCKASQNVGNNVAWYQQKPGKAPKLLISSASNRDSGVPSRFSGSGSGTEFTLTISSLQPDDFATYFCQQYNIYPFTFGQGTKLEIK: 32.7

Which measured % residual binding after heat treatment (room temperature = 100%) value corresponds to VH14_1.VL15 (antibody, human IgG4, V domains shown, VH14 with R72S; rest is human IgG4 (S241P, Kabat) and human kappa; also called 14_1.15; antibody 14_1.15) VH: QVQLVQSGAEVKKPGASVKVSCKASGYTFTSYVMHWVRQAPGQGLEWMGYINPYNDAPKYNEKFKGRVTMTSDTSASTAYMELSSLRSDDTAVYYCARGLGYALYYAMDYWGQGTTVTVSS VL: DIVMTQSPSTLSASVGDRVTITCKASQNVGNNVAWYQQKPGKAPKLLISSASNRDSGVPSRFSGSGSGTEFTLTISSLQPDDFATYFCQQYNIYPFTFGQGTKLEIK ?
38.3
